Recorded IC50 values (UniProt P22303) are given below.
Sequence (P22303 whole entry): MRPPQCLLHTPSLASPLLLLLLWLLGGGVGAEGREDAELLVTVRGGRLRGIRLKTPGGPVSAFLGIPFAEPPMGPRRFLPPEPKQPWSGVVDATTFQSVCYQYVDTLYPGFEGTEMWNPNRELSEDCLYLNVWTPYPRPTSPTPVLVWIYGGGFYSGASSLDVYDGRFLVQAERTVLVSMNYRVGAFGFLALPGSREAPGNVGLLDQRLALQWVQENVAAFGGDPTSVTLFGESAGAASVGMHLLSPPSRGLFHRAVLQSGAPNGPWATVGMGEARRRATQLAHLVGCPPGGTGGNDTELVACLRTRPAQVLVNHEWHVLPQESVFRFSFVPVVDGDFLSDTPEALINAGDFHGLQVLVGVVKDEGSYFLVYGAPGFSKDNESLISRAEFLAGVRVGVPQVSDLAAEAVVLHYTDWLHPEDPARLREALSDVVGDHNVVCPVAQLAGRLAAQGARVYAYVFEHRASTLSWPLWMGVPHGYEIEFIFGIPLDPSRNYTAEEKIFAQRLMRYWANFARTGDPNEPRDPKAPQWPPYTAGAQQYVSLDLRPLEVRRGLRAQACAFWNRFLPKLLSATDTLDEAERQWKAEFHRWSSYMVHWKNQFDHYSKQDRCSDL
RECORDED_ENDPOINT: IC50 (nM)

>>> reported_measurement("O=C(Nc1nc(-c2ccc(Cl)cc2)c(-c2ccc(Cl)cc2)s1)C1CCN(Cc2ccccc2C(F)(F)F)CC1")
2770
>>> reported_measurement("COc1ccc(-c2nc(NCC3CCN(Cc4ccccc4C)CC3)sc2-c2ccc(OC)cc2)cc1")
590
>>> reported_measurement("Cc1ccc(CN2CCC(Nc3nc(-c4ccc(C)cc4)c(-c4ccc(C)cc4)s3)CC2)cc1")
1090
>>> reported_measurement("N#Cc1ccccc1CN1CCC(C(=O)Nc2nc(-c3ccc(Cl)cc3)c(-c3ccc(Cl)cc3)s2)CC1")
1770
>>> reported_measurement("O=C(Nc1nc(-c2ccc(Cl)cc2)c(-c2ccc(Cl)cc2)s1)C1CCN(Cc2ccc(OC(F)(F)F)cc2)CC1")
1380
>>> reported_measurement("COc1ccc(-c2nc(NC3CCN(Cc4ccc(C)cc4)CC3)sc2-c2ccc(OC)cc2)cc1")
830
>>> reported_measurement("Cc1ccc(-c2nc(NC3CCN(Cc4ccccc4)CC3)sc2-c2ccc(C)cc2)cc1")
1280
>>> reported_measurement("COc1ccc(-c2nc(NC(=O)C3CCN(Cc4c(F)cccc4Cl)CC3)sc2-c2ccc(OC)cc2)cc1")
410
